Where do the numbers come from? From PubChem BioAssay (EPA / NIEHS).

Measurement notes: CCTE_Shafer_MEA_dev_bursting_electrodes_number: CCTE's Neural Network Formation Assay for Number of Bursting Electrodes, Shafer Lab (AID 2284043)
Records with an inconclusive call do not appear. Calls of active or inactive are those of the source. Rule for the calls: active = hit-call score of the fitted dose curve at least 0.9, where 1 is the maximum; inconclusive = response in the unintended direction; inactive = score below 0.9.
Pick from true (1) = active, false (0) = inactive when you respond.

Examples from the recorded data:
| Molecule | Qualitative label |
| --- | --- |
| OCC(F)(F)OC(F)(F)C(F)(F)OC(F)(F)CO | false (0) |
| O=C(O)C(F)(OC(F)(F)C(F)(F)C(F)(F)F)C(F)(F)F (stereo not drawn) | false (0) |

Could you check what this test reported for CC(O)C(F)(F)C(F)(F)F (stereo not drawn) ?
false (0)

Could you check what this test reported for CCOc1ccc(C(C)(C)COCc2cccc(Oc3ccccc3)c2)cc1 ?
true (1)

Could you check what this test reported for OCC(F)(F)OC(F)(F)C(F)(F)OC(F)(F)C(F)(F)OC(F)(F)F ?
false (0)

Could you check what this test reported for O=S(=O)(c1ccc(O)cc1)c1ccc(O)cc1 ?
false (0)

Could you check what this test reported for c1ccc(OP(Oc2ccccc2)Oc2ccccc2)cc1 ?
false (0)

Could you check what this test reported for O=C(O)C(F)(F)C(F)(F)C(=O)O ?
false (0)

Could you check what this test reported for CCCCC(CC)COC(=O)c1c(Br)c(Br)c(Br)c(Br)c1C(=O)OCC(CC)CCCC (stereo not drawn) ?
false (0)

Could you check what this test reported for c1cc2c3c(cccc3c1)CC2 ?
false (0)

* * *

Measurement notes: BSK_3C_TissueFactor: BioMAP Diversity Plus: 3C Assay for Tissue Factor Biomarker Activity (AID 2282997)
Run conditions: BioMAP 3C HUVEC, tissue factor biomarker readout; actives raise or lower the signal
The source made the active and inactive calls. How the source made its calls: active means hit-call score of the fitted dose curve at least 0.9, where 1 is the maximum; inactive means score below 0.9.
Pick from active, inactive when you respond.

Examples from the recorded data:
| Compound | Qualitative label |
| --- | --- |
| CCNc1nc(Cl)nc(NC(C)(C)C)n1 | inactive |
| CCC1(c2ccccc2)C(=O)N=C(O)NC1=O (configuration not stated) | inactive |

Could you check what this test reported for CCOP(=S)(OCC)SCSCC ?
inactive

Could you check what this test reported for Cc1ccc([N+](=O)[O-])cc1C ?
inactive

Could you check what this test reported for O=P1(N(CCCl)CCCl)NCCCO1 (configuration not stated) ?
inactive

Could you check what this test reported for CCOc1ccc(C(C)(C)COCc2cccc(Oc3ccccc3)c2)cc1 ?
inactive

* * *

Read-out: Early growth response protein 1 (EGR1) transcription factor, EGR1 (gene 1958)
Measurement notes: LTEA_HepaRG_EGR1: Life Technologies and Expression Analysis (LTEA) Assay for Early growth response protein 1 (EGR1) transcription factor using HepaRG (AID 2283490)
Run conditions: mRNA level, 48 h; actives raise or lower the signal
Active and inactive are the calls of the source. How the source made its calls: active means hit-call score of the fitted dose curve at least 0.9, where 1 is the maximum; inactive means score below 0.9.
Pick from 1 (yes) (active), 0 (no) (inactive) when you respond.

Examples from the recorded data:
| Compound | Qualitative label |
| --- | --- |
| O=P1(N(CCCl)CCCl)NCCCO1 (stereo not drawn) | 0 (no) |
| CCCCCCCc1ccc(O)cc1 | 0 (no) |
| ClC1=C(Cl)C2(Cl)C3C(Cl)C(Cl)CC3C1(Cl)C2(Cl)Cl (stereo not drawn) | 0 (no) |
| Cc1ccc(N)cc1N | 0 (no) |
| CSC(C)(C)C=NO | 0 (no) |

Could you check what this test reported for c1ccc2c(c1)Nc1ccccc1S2 ?
0 (no)

Could you check what this test reported for c1nc[nH]n1 ?
1 (yes)

Could you check what this test reported for CCCCc1ccccc1 ?
0 (no)
